# Tested target: Synaptic vesicular amine transporter (Rattus norvegicus)
# Method description: Inhibition of [3H]DA uptake at VMAT2 in rat striatal synaptosome at 0.1 uM incubated for 10 mins followed by [3H]DA addition and measured after 20 mins by TopCount scintillation counting method relative to control
# Format: subcellular
# Protocol conditions: Striatum, time 30.0 min
Observable: inhibition (%)

[
  {
    "Compound": "COCCCOc1cc2c(cc1OC)C1CC(O)C(CC(C)C)CN1CC2 (stereo not given)",
    "Tested target": "Synaptic vesicular amine transporter (Rattus norvegicus)",
    "Observable": "inhibition",
    "U": "%",
    "Test value": 84.9
  },
  {
    "Compound": "CCC1(O)CC2c3cc(OC)c(OC)cc3CCN2CC1CC(C)C (stereo not given)",
    "Tested target": "Synaptic vesicular amine transporter (Rattus norvegicus)",
    "Observable": "inhibition",
    "U": "%",
    "Test value": 33.2
  },
  {
    "Compound": "COc1cc2c(cc1OC)C1CC(N)C(CC(C)C)CN1CC2 (stereo not given)",
    "Tested target": "Synaptic vesicular amine transporter (Rattus norvegicus)",
    "Observable": "inhibition",
    "U": "%",
    "Test value": 72.8
  },
  {
    "Compound": "COc1cc2c(cc1OCC1CC1)CCN1CC(CC(C)C)C(O)CC21 (stereo not given)",
    "Tested target": "Synaptic vesicular amine transporter (Rattus norvegicus)",
    "Observable": "inhibition",
    "U": "%",
    "Test value": 96
  },
  {
    "Compound": "COc1cc2c(cc1OC)C1CC(O)(C#N)C(CC(C)C)CN1CC2 (stereo not given)",
    "Tested target": "Synaptic vesicular amine transporter (Rattus norvegicus)",
    "Observable": "inhibition",
    "U": "%",
    "Test value": 85
  },
  {
    "Compound": "CCOc1cc2c(cc1OC)C1CC(O)C(CC(C)C)CN1CC2 (stereo not given)",
    "Tested target": "Synaptic vesicular amine transporter (Rattus norvegicus)",
    "Observable": "inhibition",
    "U": "%",
    "Test value": 99.9
  },
  {
    "Compound": "COc1cc2c(cc1OC)C1CC(C)(O)C(CC(C)C)CN1CC2 (stereo not given)",
    "Tested target": "Synaptic vesicular amine transporter (Rattus norvegicus)",
    "Observable": "inhibition",
    "U": "%",
    "Test value": 53.1
  },
  {
    "Compound": "COc1cc2c(cc1OCC(F)(F)F)CCN1CC(CC(C)C)C(O)CC21 (stereo not given)",
    "Tested target": "Synaptic vesicular amine transporter (Rattus norvegicus)",
    "Observable": "inhibition",
    "U": "%",
    "Test value": 99.9
  },
  {
    "Compound": "CCCOc1cc2c(cc1OC)C1CC(O)C(CC(C)C)CN1CC2 (stereo not given)",
    "Tested target": "Synaptic vesicular amine transporter (Rattus norvegicus)",
    "Observable": "inhibition",
    "U": "%",
    "Test value": 91.2
  },
  {
    "Compound": "COc1cc2c(cc1OC)C1CC(O)(CO)C(CC(C)C)CN1CC2 (stereo not given)",
    "Tested target": "Synaptic vesicular amine transporter (Rattus norvegicus)",
    "Observable": "inhibition",
    "U": "%",
    "Test value": 99.1
  }
]

###

# Method description: AUC (0 to infinity) in Sprague-Dawley rat at 10 umol/kg, ig administered as single dose by LC-MS/MS analysis
# Format: ADME
# Parameters: time infinity, route […], dose 10 µmol/kg
# Protocol conditions: in vivo, po

[
  {
    "Compound": "COc1cc2c(cc1OC)[C@H]1C[C@@H](O)[C@H](CC(C)C)CN1CC2 [DIHYDROTETRABENAZINE]",
    "AUC(0-inf) [µM·h]": 2.3
  },
  {
    "Compound": "COc1cc2c(cc1OCC(F)(F)F)CCN1CC(CC(C)C)C(O)CC21 (configuration not stated)",
    "AUC(0-inf) [µM·h]": 3.47
  }
]

###

# Method description: Clearance in Sprague-Dawley rat at 10 umol/kg, ig administered as single dose measured for 12 hrs by LC-MS/MS analysis
# Format: ADME
# Protocol conditions: in vivo, po, dose 10 µmol/kg

[
  {
    "Compound": "COc1cc2c(cc1OCC(F)(F)F)CCN1CC(CC(C)C)C(O)CC21 (configuration not stated)",
    "CL/F / mL/min/kg": 53.3
  },
  {
    "Compound": "COc1cc2c(cc1OC)[C@H]1C[C@@H](O)[C@H](CC(C)C)CN1CC2 [DIHYDROTETRABENAZINE]",
    "CL/F / mL/min/kg": 74.5
  }
]

###

# Method description: Metabolic stability in mouse liver microsomes assessed as half life at 1 uM in the presence of NADPH measured for 60 mins by LC-MS/MS analysis
# Type: ADME, Microsome
# Protocol conditions: liver microsomes

[
  {
    "Compound": "CCCOc1cc2c(cc1OCC)C1CC(O)C(CC(C)C)CN1CC2 (stereo not drawn)",
    "U": "min",
    "half-life at 1 µM": 10.3
  },
  {
    "Compound": "COc1cc2c(cc1OC)C1CC(=O)C(CC(C)C)CN1CC2 (stereo not drawn)",
    "U": "min",
    "half-life at 1 µM": 21.6
  },
  {
    "Compound": "COc1cc2c(cc1OC)[C@H]1C[C@@H](O)[C@H](CC(C)C)CN1CC2 [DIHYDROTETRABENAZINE]",
    "U": "min",
    "half-life at 1 µM": 4.8
  }
]

###

# Tested target: Cytochrome P450 3A4 (Homo sapiens, UniProt P08684)
# Sequence (P08684 whole entry): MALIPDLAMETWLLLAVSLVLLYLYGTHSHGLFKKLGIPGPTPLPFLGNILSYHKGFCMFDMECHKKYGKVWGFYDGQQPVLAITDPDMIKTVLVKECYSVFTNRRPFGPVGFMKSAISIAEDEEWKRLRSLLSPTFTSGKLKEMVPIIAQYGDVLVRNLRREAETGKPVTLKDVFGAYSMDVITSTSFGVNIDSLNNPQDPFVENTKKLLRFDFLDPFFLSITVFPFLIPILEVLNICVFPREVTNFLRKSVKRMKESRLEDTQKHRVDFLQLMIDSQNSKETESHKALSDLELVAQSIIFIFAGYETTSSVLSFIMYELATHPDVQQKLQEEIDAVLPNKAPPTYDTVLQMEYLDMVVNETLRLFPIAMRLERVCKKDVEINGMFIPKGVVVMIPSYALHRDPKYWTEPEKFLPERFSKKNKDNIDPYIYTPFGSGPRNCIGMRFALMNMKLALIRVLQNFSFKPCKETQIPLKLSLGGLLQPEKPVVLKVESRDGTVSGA

[
  {
    "Compound": "COc1cc2c(cc1OC)[C@H]1C[C@@H](O)[C@H](CC(C)C)CN1CC2 [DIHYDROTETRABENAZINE]",
    "IC50": "> 100 µM"
  }
]

###

# Tested target: Synaptic vesicular amine transporter (Rattus norvegicus, UniProt Q01827)
# Sequence (Q01827 whole entry): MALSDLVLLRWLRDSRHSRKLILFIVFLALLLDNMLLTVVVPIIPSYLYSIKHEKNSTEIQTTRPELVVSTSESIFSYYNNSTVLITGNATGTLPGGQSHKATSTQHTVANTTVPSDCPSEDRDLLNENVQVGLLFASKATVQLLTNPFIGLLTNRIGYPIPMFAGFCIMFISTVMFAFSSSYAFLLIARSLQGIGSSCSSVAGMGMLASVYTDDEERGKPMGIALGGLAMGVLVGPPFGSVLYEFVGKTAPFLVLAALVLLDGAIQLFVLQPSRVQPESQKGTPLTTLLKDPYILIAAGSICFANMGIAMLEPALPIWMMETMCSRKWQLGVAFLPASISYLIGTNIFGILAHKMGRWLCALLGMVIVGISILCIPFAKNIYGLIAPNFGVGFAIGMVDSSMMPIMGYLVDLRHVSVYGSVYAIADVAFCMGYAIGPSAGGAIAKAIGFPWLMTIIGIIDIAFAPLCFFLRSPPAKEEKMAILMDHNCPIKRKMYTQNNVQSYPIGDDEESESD
# Method description: Inhibition of [3H]DA uptake at VMAT2 in rat striatal synaptosome incubated for 10 mins followed by [3H]DA addition and measured after 20 mins by TopCount scintillation counting method
# Assay type: subcellular, Striatum
Entries and their IC50 values follow.
Observable: IC50 (nM)

[
  {
    "Compound": "COc1cc2c(cc1OCC1CC1)CCN1CC(CC(C)C)C(O)CC21 (stereo unspecified)",
    "U": "nM",
    "Test value": 17.8
  },
  {
    "Compound": "COc1cc2c(cc1OC)C1CC(O)(C#N)C(CC(C)C)CN1CC2 (stereo unspecified)",
    "U": "nM",
    "Test value": 27.9
  },
  {
    "Compound": "COc1cc2c(cc1OC)C1CC(O)(CO)C(CC(C)C)CN1CC2 (stereo unspecified)",
    "U": "nM",
    "Test value": 5.14
  },
  {
    "Compound": "CCOc1cc2c(cc1OC)C1CC(O)C(CC(C)C)CN1CC2 (stereo unspecified)",
    "U": "nM",
    "Test value": 5.72
  },
  {
    "Compound": "CCCOc1cc2c(cc1OC)C1CC(O)C(CC(C)C)CN1CC2 (stereo unspecified)",
    "U": "nM",
    "Test value": 35.2
  },
  {
    "Compound": "COCCCOc1cc2c(cc1OC)C1CC(O)C(CC(C)C)CN1CC2 (stereo unspecified)",
    "U": "nM",
    "Test value": 64.9
  }
]

###

# Method description: Tmax in Sprague-Dawley rat at 10 umol/kg, ig administered as single dose measured for 12 hrs by LC-MS/MS analysis
# Format: ADME
# Protocol conditions: in vivo, po, dose 10 µmol/kg
Entries and their Tmax values follow.
Observable: Tmax (min)

[
  {
    "Molecule": "COc1cc2c(cc1OC)[C@H]1C[C@@H](O)[C@H](CC(C)C)CN1CC2 [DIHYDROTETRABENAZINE]",
    "Observable": "Tmax",
    "Test value": 22.8
  },
  {
    "Molecule": "COc1cc2c(cc1OCC(F)(F)F)CCN1CC(CC(C)C)C(O)CC21 (configuration not stated)",
    "Observable": "Tmax",
    "Test value": 45
  }
]

###

# Tested target: Synaptic vesicular amine transporter (Rattus norvegicus) (UniProt Q01827)
# Sequence (Q01827 whole entry): as the sequence (Q01827 whole entry) above
# Method description: Inhibition of [3H]DA uptake at VMAT2 in rat striatal synaptosome at 1 uM incubated for 10 mins followed by [3H]DA addition and measured after 20 mins by TopCount scintillation counting method relative to control
# Type: subcellular
# Protocol conditions: Striatum, time 30.0 min

[
  {
    "Compound": "COc1cc2c(cc1OC)C1CC(O)(CO)C(CC(C)C)CN1CC2 (stereo not given)",
    "inhibition (%)": 99.7
  },
  {
    "Compound": "CCCOc1cc2c(cc1OC)C1CC(O)C(CC(C)C)CN1CC2 (stereo not given)",
    "inhibition (%)": 99.3
  },
  {
    "Compound": "COc1cc2c(cc1OCC1CC1)CCN1CC(CC(C)C)C(O)CC21 (stereo not given)",
    "inhibition (%)": 99.2
  },
  {
    "Compound": "COc1cc2c(cc1OCC(F)(F)F)CCN1CC(CC(C)C)C(O)CC21 (stereo not given)",
    "inhibition (%)": 99.9
  },
  {
    "Compound": "COc1cc2c(cc1OC)C1CC(O)(C#N)C(CC(C)C)CN1CC2 (stereo not given)",
    "inhibition (%)": 93.7
  },
  {
    "Compound": "COCCCOc1cc2c(cc1OC)C1CC(O)C(CC(C)C)CN1CC2 (stereo not given)",
    "inhibition (%)": 92.1
  },
  {
    "Compound": "COc1cc2c(cc1OC)C1CC(N)C(CC(C)C)CN1CC2 (stereo not given)",
    "inhibition (%)": 87.9
  },
  {
    "Compound": "CCOc1cc2c(cc1OC)C1CC(O)C(CC(C)C)CN1CC2 (stereo not given)",
    "inhibition (%)": 99.9
  },
  {
    "Compound": "CCC1(O)CC2c3cc(OC)c(OC)cc3CCN2CC1CC(C)C (stereo not given)",
    "inhibition (%)": 81.7
  },
  {
    "Compound": "COc1cc2c(cc1OC)C1CC(C)(O)C(CC(C)C)CN1CC2 (stereo not given)",
    "inhibition (%)": 96.1
  }
]

All figures here come from ChEMBL document CHEMBL4828724.
